Each item that follows carries a reported viability, T/C.
System: T-47D spheroids with HUVEC/MSC, viability
assayMethodText: Anticancer human tumor T-47D cell line growth inhibition [PI3K];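 note: spheroids exposed to agents for seven days before reading; percent of DMSO vehicle control luminescence so 100% = untreated growth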
runParameters: second compound 0.0316 µM; first compound 0.0316 µM; active compounds read low

>  <compound>
C#Cc1c(F)ccc2cc(O)cc(-c3ncc4c(N5CC6CCC(C5)N6)nc(OCC56CCCN5CC(F)C6)nc4c3F)c12 (stereo unspecified) + Cc1nc(NC(=O)N2CCCC2C(N)=O)sc1-c1ccnc(C(C)(C)C(F)(F)F)c1

>  <viability, T/C (%)>
94.8

$$$$
>  <compound>
CCCS(=O)(=O)Nc1ccc(F)c(C(=O)c2c[nH]c3ncc(-c4ccc(Cl)cc4)cc23)c1F + COc1c(OCCCN2CCOCC2)ccc2c3n(c(=NC(=O)c4cnc(N)nc4)nc12)CCN3

>  <viability, T/C (%)>
66.8

$$$$
>  <compound>
CC(=O)c1c(C)c2cnc(Nc3ccc(N4CCNCC4)cn3)nc2n(C2CCCC2)c1=O + CC(Nc1ncnc2nc[nH]c12)c1cc2cccc(Cl)c2c(=O)n1-c1ccccc1

>  <viability, T/C (%)>
86.5

$$$$
>  <compound>
C[C@@H](NC(=O)c1ncnc(N)c1Cl)c1ncc(C(=O)Nc2cc(C(F)(F)F)c(Cl)cn2)s1 + Cc1nc(NC(=O)N2CCCC2C(N)=O)sc1-c1ccnc(C(C)(C)C(F)(F)F)c1

>  <viability, T/C (%)>
108

$$$$
>  <compound>
CC(=O)c1c(C)c2cnc(Nc3ccc(N4CCNCC4)cn3)nc2n(C2CCCC2)c1=O + Cc1nc(NC(=O)N2CCCC2C(N)=O)sc1-c1ccnc(C(C)(C)C(F)(F)F)c1

>  <viability, T/C (%)>
92.1

$$$$
>  <compound>
Cn1nccc1Nc1nccc(-c2ccn(C(CO)c3ccc(Cl)c(F)c3)c(=O)c2)n1 (stereo unspecified) + CC(Nc1ccc2c(c1)OCCn1cc(N3C(=O)OCC3C(F)F)nc1-2)C(N)=O

>  <viability, T/C (%)>
86.1

$$$$
>  <compound>
CC1(C)CCC(CN2CCN(c3ccc(C(=O)NS(=O)(=O)c4ccc(NCC5CCOCC5)c([N+](=O)[O-])c4)c(Oc4cnc5[nH]ccc5c4)c3)CC2)=C(c2ccc(Cl)cc2)C1 + CC(Nc1ccc2c(c1)OCCn1cc(N3C(=O)OCC3C(F)F)nc1-2)C(N)=O

>  <viability, T/C (%)>
87.3

$$$$
>  <compound>
CC(Cn1ccc(-c2ccc(C#N)c(Cl)c2)n1)NC(=O)c1cc(C(C)O)[nH]n1 (stereo unspecified) + Cc1nc(NC(=O)N2CCCC2C(N)=O)sc1-c1ccnc(C(C)(C)C(F)(F)F)c1

>  <viability, T/C (%)>
97

$$$$
>  <compound>
Cn1ncc(Cl)c1-c1cc(C(=O)NC(CN)Cc2cccc(F)c2)sc1Cl (stereo unspecified) + CC(Nc1ccc2c(c1)OCCn1cc(N3C(=O)OCC3C(F)F)nc1-2)C(N)=O

>  <viability, T/C (%)>
82.1

$$$$
>  <compound>
C=CC(=O)N1CCN(c2nc(=O)n(-c3c(C)ccnc3C(C)C)c3nc(-c4c(O)cccc4F)c(F)cc23)C(C)C1 (stereo unspecified) + COc1c(OCCCN2CCOCC2)ccc2c3n(c(=NC(=O)c4cnc(N)nc4)nc12)CCN3

>  <viability, T/C (%)>
84.5

$$$$
>  <compound>
Cn1nccc1Nc1nccc(-c2ccn(C(CO)c3ccc(Cl)c(F)c3)c(=O)c2)n1 (stereo unspecified) + CC(Nc1ncnc2nc[nH]c12)c1cc2cccc(Cl)c2c(=O)n1-c1ccccc1

>  <viability, T/C (%)>
114

$$$$
>  <compound>
CCCS(=O)(=O)Nc1ccc(F)c(C(=O)c2c[nH]c3ncc(-c4ccc(Cl)cc4)cc23)c1F + Cc1nc(NC(=O)N2CCCC2C(N)=O)sc1-c1ccnc(C(C)(C)C(F)(F)F)c1

>  <viability, T/C (%)>
95.4

$$$$
>  <compound>
CC(=O)c1c(C)c2cnc(Nc3ccc(N4CCNCC4)cn3)nc2n(C2CCCC2)c1=O + CC(Nc1ccc2c(c1)OCCn1cc(N3C(=O)OCC3C(F)F)nc1-2)C(N)=O

>  <viability, T/C (%)>
69.8

$$$$
>  <compound>
CNC(=O)c1ccc(N2C(=S)N(c3ccc(C#N)c(C(F)(F)F)c3)C(=O)C2(C)C)cc1F + CC(Nc1ncnc2nc[nH]c12)c1cc2cccc(Cl)c2c(=O)n1-c1ccccc1

>  <viability, T/C (%)>
117

$$$$
>  <compound>
CCN1CCN(Cc2ccc(Nc3ncc(F)c(-c4cc(F)c5nc(C)n(C(C)C)c5c4)n3)nc2)CC1 + CC(Nc1ncnc2nc[nH]c12)c1cc2cccc(Cl)c2c(=O)n1-c1ccccc1

>  <viability, T/C (%)>
91.7

$$$$
>  <compound>
CC1(C)CCC(Nc2ncc(C(F)(F)F)c(-c3c[nH]c4c(P(C)(C)=O)c(C#N)ccc34)n2)CN1 (stereo unspecified) + CC(Nc1ncnc2nc[nH]c12)c1cc2cccc(Cl)c2c(=O)n1-c1ccccc1

>  <viability, T/C (%)>
73.3

$$$$
>  <compound>
Cn1ncnc1[C@H]1c2n[nH]c(=O)c3cc(F)cc(c23)N[C@@H]1c1ccc(F)cc1 + CC(Nc1ncnc2nc[nH]c12)c1cc2cccc(Cl)c2c(=O)n1-c1ccccc1

>  <viability, T/C (%)>
99.6

$$$$
>  <compound>
CC(C)n1nc(-c2ccc3oc(N)nc3c2)c2c(N)ncnc21 + COc1c(OCCCN2CCOCC2)ccc2c3n(c(=NC(=O)c4cnc(N)nc4)nc12)CCN3

>  <viability, T/C (%)>
29.8

$$$$
>  <compound>
CC1(C)CCC(Nc2ncc(C(F)(F)F)c(-c3c[nH]c4c(P(C)(C)=O)c(C#N)ccc34)n2)CN1 (stereo unspecified) + Cc1nc(NC(=O)N2CCCC2C(N)=O)sc1-c1ccnc(C(C)(C)C(F)(F)F)c1

>  <viability, T/C (%)>
73.6

$$$$
>  <compound>
Cn1nccc1Nc1nccc(-c2ccn(C(CO)c3ccc(Cl)c(F)c3)c(=O)c2)n1 (stereo unspecified) + Cc1nc(NC(=O)N2CCCC2C(N)=O)sc1-c1ccnc(C(C)(C)C(F)(F)F)c1

>  <viability, T/C (%)>
99.1

$$$$
>  <compound>
CC(C)NCC(C(=O)N1CCN(c2ncnc3c2C(C)CC3O)CC1)c1ccc(Cl)cc1 (stereo unspecified) + CC(Nc1ncnc2nc[nH]c12)c1cc2cccc(Cl)c2c(=O)n1-c1ccccc1

>  <viability, T/C (%)>
107

$$$$

====

Each item that follows carries a reported viability, T/C.
Tested on: T-47D spheroids with HUVEC/MSC, viability
assayMethodText: Anticancer human tumor T-47D cell line growth inhibition [PI3K];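 note: spheroids exposed to agents for seven days before reading; percent of DMSO vehicle control luminescence so 100% = untreated growth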
runParameters: second compound 1 µM; first compound 1 µM; active compounds read low
metricName: viability, T/C

>  <molecule>
CCCS(=O)(=O)Nc1ccc(F)c(C(=O)c2c[nH]c3ncc(-c4ccc(Cl)cc4)cc23)c1F + COc1c(OCCCN2CCOCC2)ccc2c3n(c(=NC(=O)c4cnc(N)nc4)nc12)CCN3

>  <observedMeasurement>
2.77%

$$$$
>  <molecule>
C[C@@H](NC(=O)c1ncnc(N)c1Cl)c1ncc(C(=O)Nc2cc(C(F)(F)F)c(Cl)cn2)s1 + CC(Nc1ncnc2nc[nH]c12)c1cc2cccc(Cl)c2c(=O)n1-c1ccccc1

>  <observedMeasurement>
89.2%

$$$$
>  <molecule>
C[C@@H](NC(=O)c1ncnc(N)c1Cl)c1ncc(C(=O)Nc2cc(C(F)(F)F)c(Cl)cn2)s1 + Cc1nc(NC(=O)N2CCCC2C(N)=O)sc1-c1ccnc(C(C)(C)C(F)(F)F)c1

>  <observedMeasurement>
91.4%

$$$$
>  <molecule>
CC(C)NCC(C(=O)N1CCN(c2ncnc3c2C(C)CC3O)CC1)c1ccc(Cl)cc1 (stereo unspecified) + CC(Nc1ncnc2nc[nH]c12)c1cc2cccc(Cl)c2c(=O)n1-c1ccccc1

>  <observedMeasurement>
63.4%

$$$$
>  <molecule>
Cn1ncc(Cl)c1-c1cc(C(=O)NC(CN)Cc2cccc(F)c2)sc1Cl (stereo unspecified) + COc1c(OCCCN2CCOCC2)ccc2c3n(c(=NC(=O)c4cnc(N)nc4)nc12)CCN3

>  <observedMeasurement>
6.88%

$$$$
>  <molecule>
CCN1CCN(Cc2ccc(Nc3ncc(F)c(-c4cc(F)c5nc(C)n(C(C)C)c5c4)n3)nc2)CC1 + CC(Nc1ccc2c(c1)OCCn1cc(N3C(=O)OCC3C(F)F)nc1-2)C(N)=O

>  <observedMeasurement>
44.8%

$$$$
>  <molecule>
C#Cc1c(F)ccc2cc(O)cc(-c3ncc4c(N5CC6CCC(C5)N6)nc(OCC56CCCN5CC(F)C6)nc4c3F)c12 (stereo unspecified) + CC(Nc1ccc2c(c1)OCCn1cc(N3C(=O)OCC3C(F)F)nc1-2)C(N)=O

>  <observedMeasurement>
43.7%

$$$$
>  <molecule>
C=CC(=O)N1CCN(c2nc(=O)n(-c3c(C)ccnc3C(C)C)c3nc(-c4c(O)cccc4F)c(F)cc23)C(C)C1 (stereo unspecified) + Cc1nc(NC(=O)N2CCCC2C(N)=O)sc1-c1ccnc(C(C)(C)C(F)(F)F)c1

>  <observedMeasurement>
100%

$$$$
>  <molecule>
CCN1CCN(Cc2ccc(Nc3ncc(F)c(-c4cc(F)c5nc(C)n(C(C)C)c5c4)n3)nc2)CC1 + Cc1nc(NC(=O)N2CCCC2C(N)=O)sc1-c1ccnc(C(C)(C)C(F)(F)F)c1

>  <observedMeasurement>
70.3%

$$$$
>  <molecule>
CC1(C)CCC(Nc2ncc(C(F)(F)F)c(-c3c[nH]c4c(P(C)(C)=O)c(C#N)ccc34)n2)CN1 (stereo unspecified) + CC(Nc1ccc2c(c1)OCCn1cc(N3C(=O)OCC3C(F)F)nc1-2)C(N)=O

>  <observedMeasurement>
29.5%

$$$$
>  <molecule>
Cn1ncc(Cl)c1-c1cc(C(=O)NC(CN)Cc2cccc(F)c2)sc1Cl (stereo unspecified) + CC(Nc1ccc2c(c1)OCCn1cc(N3C(=O)OCC3C(F)F)nc1-2)C(N)=O

>  <observedMeasurement>
45.5%

$$$$
